# test_target: PI3Kγ (p110γ) Recombinant Human Protein (Homo sapiens (Human), UniProt P48736)
# Sequence (P48736 whole entry): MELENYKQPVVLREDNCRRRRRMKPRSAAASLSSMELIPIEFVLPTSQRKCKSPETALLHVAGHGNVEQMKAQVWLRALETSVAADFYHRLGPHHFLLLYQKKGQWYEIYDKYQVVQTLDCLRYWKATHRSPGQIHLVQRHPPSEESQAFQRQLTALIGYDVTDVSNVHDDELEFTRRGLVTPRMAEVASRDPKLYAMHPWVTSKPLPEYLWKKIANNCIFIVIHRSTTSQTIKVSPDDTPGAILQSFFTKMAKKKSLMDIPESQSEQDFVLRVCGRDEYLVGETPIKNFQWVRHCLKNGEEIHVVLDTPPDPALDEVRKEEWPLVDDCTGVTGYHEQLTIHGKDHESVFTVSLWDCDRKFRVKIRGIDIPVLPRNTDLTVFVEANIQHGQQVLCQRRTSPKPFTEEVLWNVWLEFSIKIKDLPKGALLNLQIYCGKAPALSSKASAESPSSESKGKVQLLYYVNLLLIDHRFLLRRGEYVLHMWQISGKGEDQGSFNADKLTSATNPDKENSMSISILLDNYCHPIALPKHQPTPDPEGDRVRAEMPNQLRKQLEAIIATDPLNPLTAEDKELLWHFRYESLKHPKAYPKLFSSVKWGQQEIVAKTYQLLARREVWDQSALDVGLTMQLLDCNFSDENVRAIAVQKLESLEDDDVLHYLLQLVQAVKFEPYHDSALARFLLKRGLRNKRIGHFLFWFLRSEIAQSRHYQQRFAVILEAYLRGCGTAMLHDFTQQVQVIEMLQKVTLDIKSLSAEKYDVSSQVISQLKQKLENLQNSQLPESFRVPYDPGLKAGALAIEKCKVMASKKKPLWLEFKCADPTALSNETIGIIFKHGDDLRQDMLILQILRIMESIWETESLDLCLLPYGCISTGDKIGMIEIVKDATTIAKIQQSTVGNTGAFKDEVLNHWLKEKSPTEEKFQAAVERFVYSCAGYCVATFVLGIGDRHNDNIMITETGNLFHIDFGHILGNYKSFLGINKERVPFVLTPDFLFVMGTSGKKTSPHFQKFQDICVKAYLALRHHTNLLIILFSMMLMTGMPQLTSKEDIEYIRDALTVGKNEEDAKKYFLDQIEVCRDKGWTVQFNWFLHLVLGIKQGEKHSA
# method_summary: PI3K-γ scintillation proximity assay
# condition_details: 2 μM ATP, 20 μM PIP2
Counter-ions that a name gives are not always drawn.
reported_property: IC50

CCOc1c(C(C)NC(=O)c2c(N)nn3ccc(N4CCCCC4)nc23)cc(Cl)c2cn[nH]c12 (stereo not shown) [Example 44, trifluoroacetate salt] : < 500 nM
CCOC(=O)C1CC=C(c2c(C(C)NC(=O)c3c(N)nn4cccnc34)cc(Cl)c3cn[nH]c23)CC1 (stereo not shown) [Example 97, bistrifluoroacetate] : < 100 nM
Nc1nn2cccnc2c1C(=O)NCc1cc(Cl)c2cncn2c1N1CCCC1 [Example 171, trifluoroacetate salt] : < 100 nM
CCOc1c(C(C)NC(=O)c2c(N)nc3ccc(Cl)nn23)cc(Cl)c2cn[nH]c12 (stereo not shown) [Example 45] : < 100 nM
C[C@H](NC(=O)c1c(N)nn2cccnc12)c1cc(Cl)c2ccnn2c1N1CCS(=O)(=O)CC1 [Example 57, trifluoroacetate] : < 100 nM
CC(NC(=O)c1c(N)nn2cccnc12)c1cc(Cl)c2cncn2c1N1CCCC(O)C1 (stereo not shown) [Example 152, trifluoroacetate salt] : < 100 nM
Cc1ncc2c(Cl)cc(C(C)NC(=O)c3c(N)nn4cccnc34)c(-c3ccccc3)n12 (racemic) [Example 121, trifluoroacetate salt] : < 100 nM
Cc1ncn2c(-c3cccnc3)c(C(C)NC(=O)c3c(N)nn4cccnc34)cc(Cl)c12 (racemic) [Example 129, trifluoroacetate salt] : < 100 nM

Given the entry CC(NC(=O)c1c(N)nn2cccnc12)c1cc(Cl)c2cncn2c1N1C[C@H](O)C[C@@H](O)C1 (mixture of isomers) [Example 155A, trifluoroacetate salt] , what IC50 was observed with PI3Kγ (p110γ) Recombinant Human Protein (Homo sapiens (Human), UniProt P48736)?
< 100 nM

Now try CC(NC(=O)c1c(N)nn2cccnc12)c1cc(Cl)c2cncn2c1N1CCCC(C)(C#N)C1 (single isomer, unassigned) [Example 77A] .
< 100 nM

Query COCCOc1c(C(C)NC(=O)c2c(N)nn3cccnc23)cc(Cl)c2cn[nH]c12 (stereo not shown) [Example 81, trifluoroacetate] next
< 100 nM

What do you have for N#Cc1ncn2c(N3CCCC3)c(CNC(=O)c3c(N)nn4cccnc34)cc(Cl)c12 [Example 173, trifluoroacetate salt] ?
< 500 nM

CC(NC(=O)c1c(N)nn2cccnc12)c1cc(Cl)c2cncn2c1N1CCC(O)CC1 (racemic) [Example 146, trifluoroacetate salt] ?
< 100 nM
